Test system: Clostridium perfringens KYA 13123
Test: microbe, parasite or virus in culture
Format: cell-based
Details: KYA13123
Counter-ions that a name gives are not always drawn.
# condition met = MIC below 0.2 µg/mL (exclusive); condition not met = MIC at/above 0.2 µg/mL

Please review the following examples before continuing.
Molecule | Assigned Label
CCNCC1CCN(c2c(F)cc3c(=O)c(C(=O)O)cn(C4CC4)c3c2Br)C1 (stereo not drawn) | condition met
CNCC1CCN(c2c(F)cc3c(=O)c(C(=O)O)cn(C4CC4)c3c2F)C1 (stereo not drawn) [Example 8, hydrochloride] | condition not met
CNCC1CCN(c2c(F)cc3c(=O)c(C(=O)O)cn(C4CC4)c3c2Br)C1 (stereo not drawn) | condition met
CCn1cc(C(=O)O)c(=O)c2cc(F)c(N3CCNCC3)cc21 [NFLX, Norfloxacin, reference compound] | condition not met
CCCNCC1CCN(c2c(F)cc3c(=O)c(C(=O)O)cn(C4CC4)c3c2F)C1 (stereo not drawn) [Example 10, hydrochloride] | condition not met
CCNCC1CCN(c2c(F)cc3c(=O)c(C(=O)O)cn(C4CC4)c3c2F)C1 (stereo not drawn) [Example 2, hydrochloride] | condition not met
NCC1CCN(c2cc3c(cc2F)c(=O)c(C(=O)O)cn3C2CC2)C1 (stereo not drawn) | condition not met
CCNCC1CCN(c2c(F)cc3c(=O)c(C(=O)O)cn(CC)c3c2F)C1 (stereo not drawn) [Ref.1, reference compound] | condition not met
NCC1CCN(c2c(F)cc3c(=O)c(C(=O)O)cn(C4CC4)c3c2Cl)C1 (stereo not drawn) [Example 14, hydrochloride] | condition met
CCNCC1CCN(c2c(F)cc3c(=O)c(C(=O)O)cn(C4CC4)c3c2Cl)C1 (stereo not drawn) | condition met

Answer whether the molecule CNCC1CCN(c2c(F)cc3c(=O)c(C(=O)O)cn(C4CC4)c3c2Cl)C1 (stereo not drawn) [Example 12, hydrochloride] has MIC strictly less than 0.2 µg/mL
condition met

Answer whether the molecule NCC1CCN(c2c(F)cc3c(=O)c(C(=O)O)cn(C4CC4)c3c2Br)C1 (stereo not drawn) has MIC strictly less than 0.2 µg/mL
condition met

Answer whether the molecule CN(C)CC1CCN(c2c(F)cc3c(=O)c(C(=O)O)cn(C4CC4)c3c2Cl)C1 (stereo not drawn) has MIC strictly less than 0.2 µg/mL
condition met

Answer whether the molecule CNCC1CCN(c2cc3c(cc2F)c(=O)c(C(=O)O)cn3C2CC2)C1 (stereo not drawn) [Example 9, hydrochloride] has MIC strictly less than 0.2 µg/mL
condition not met

Answer whether the molecule NCC1CCN(c2c(F)cc3c(=O)c(C(=O)O)cn(C4CC4)c3c2F)C1 (stereo not drawn) [Example 1, hydrochloride] has MIC strictly less than 0.2 µg/mL
condition not met

---

Experiment: Absorption and distribution: concentration in blood and organs after oral administration, bioassay by cup method
Format: in vivo
Conditions: rat; rats, fasted, 10 mg/kg oral, lung, 6 hr after administration; Mean ± S.D. (n=5); read-out: Concentration in organs: Lung
Structures can show the parent of a compound that is named as a salt.
In this section we review reported concentration at 6 h values for a set of molecules.
Report only the number, with the unit ng/g understood.

Molecule | concentration at 6 h, ng/g
CCNCC1CCN(c2c(F)cc3c(=O)c(C(=O)O)cn(C4CC4)c3c2F)C1 (centres unmarked) [Example 2, hydrochloride] | 780

We now examine a further molecule.
Name the recorded concentration at 6 h for CCNCC1CCN(c2c(F)cc3c(=O)c(C(=O)O)cn(C4CC4)c3c2Cl)C1 (centres unmarked) .
420

---

Tested on: Fusobacterium varium KYA 8501
Assay: In vitro antibacterial activity, MIC (standard strain)
Type: cell-based
Details: Fusobacterium varium, KYA8501, Fusobacterium varium KYA 8501; 10^6 cells/ml; standard strain; read-out: MIC
Counter-ions that a name gives are not always drawn.
In this section we review reported MIC values for a set of molecules.
Report only the number, with the unit µg/mL understood.

Solved entries:
Molecule | Target | Unit Label | MIC
NCC1CCN(c2c(F)cc3c(=O)c(C(=O)O)cn(C4CC4)c3c2Br)C1 (centres unmarked) | Fusobacterium varium KYA 8501 | µg/mL | 0.39
CCNCC1CCN(c2c(F)cc3c(=O)c(C(=O)O)cn(C4CC4)c3c2F)C1 (centres unmarked) [Example 2, hydrochloride] | Fusobacterium varium KYA 8501 | µg/mL | 1.56
CNCC1CCN(c2c(F)cc3c(=O)c(C(=O)O)cn(C4CC4)c3c2Cl)C1 (centres unmarked) [Example 12, hydrochloride] | Fusobacterium varium KYA 8501 | µg/mL | 0.39
CCNCC1CCN(c2c(F)cc3c(=O)c(C(=O)O)cn(CC)c3c2F)C1 (centres unmarked) [Ref.1, reference compound] | Fusobacterium varium KYA 8501 | µg/mL | 6.25
NCC1CCN(c2c(F)cc3c(=O)c(C(=O)O)cn(C4CC4)c3c2F)C1 (centres unmarked) [Example 1, hydrochloride] | Fusobacterium varium KYA 8501 | µg/mL | 0.78
CCNCC1CCN(c2c(F)cc3c(=O)c(C(=O)O)cn(C4CC4)c3c2Cl)C1 (centres unmarked) | Fusobacterium varium KYA 8501 | µg/mL | 0.39

Name the recorded MIC for CNCC1CCN(c2cc3c(cc2F)c(=O)c(C(=O)O)cn3C2CC2)C1 (centres unmarked) [Example 9, hydrochloride] .
25

Name the recorded MIC for CCNCC1CCN(c2cc3c(cc2F)c(=O)c(C(=O)O)cn3C2CC2)C1.Cl (centres unmarked) .
12.5

---

Test: Urinary and bile excretion after oral administration, bioassay by cup method
Type: in vivo
Conditions: rat; fasted rats, 10 mg/kg oral; bile 0 ~ 3 hr; Mean ± S.D. (n=5); read-out: Recovery, bile
Structures can show the parent of a compound that is named as a salt.
In this section we review reported dose excreted at 3 h values for a set of molecules.
Report only the number, with the unit % understood.

Molecule | Readout Kind | Test Result
CCNCC1CCN(c2c(F)cc3c(=O)c(C(=O)O)cn(C4CC4)c3c2Cl)C1 (centres unmarked) | dose excreted at 3 h | 4.9

We now examine a further molecule.
Name the recorded dose excreted at 3 h for CCNCC1CCN(c2c(F)cc3c(=O)c(C(=O)O)cn(C4CC4)c3c2F)C1 (centres unmarked) [Example 2, hydrochloride] .
2.4

---

Experiment: Urinary and bile excretion after oral administration, bioassay by cup method
Type: in vivo
Details: rat; fasted rats, 10 mg/kg oral; bile 0 ~ 3 hr; Mean ± S.D. (n=5); read-out: Concentration, bile
Counter-ions that a name gives are not always drawn.
In this section we review reported concentration at 3 h values for a set of compounds.

Compound | Test Result
CCNCC1CCN(c2c(F)cc3c(=O)c(C(=O)O)cn(C4CC4)c3c2Cl)C1 (centres unmarked) [Example 13] | 36400 ng/mL

We now examine a further compound.
Name the recorded concentration at 3 h for CCNCC1CCN(c2c(F)cc3c(=O)c(C(=O)O)cn(C4CC4)c3c2F)C1 (centres unmarked) [Example 2, hydrochloride] .
17100 ng/mL

---

In this section we review reported MIC values for a set of molecules.
Tested on: E. coli ATCC 10536
Assay: In vitro antibacterial activity, MIC (standard strain)
Assay type: cell-based
Conditions: Escherichia coli, ATCC10536; E. coli ATCC 10536; 10^6 cells/ml; standard strain; read-out: MIC
Structures can show the parent of a compound that is named as a salt.

Molecule | Test Result
NCC1CCN(c2c(F)cc3c(=O)c(C(=O)O)cn(C4CC4)c3c2F)C1 (stereo not shown) [Example 1, hydrochloride] | 0.025 µg/mL
CNCC1CCN(c2cc3c(cc2F)c(=O)c(C(=O)O)cn3C2CC2)C1 (stereo not shown) [Example 9, hydrochloride] | 0.1 µg/mL
CCn1cc(C(=O)O)c(=O)c2cc(F)c(N3CCNCC3)cc21 [NFLX, Norfloxacin, reference compound] | 0.05 µg/mL
CC(C)NCC1CCN(c2c(F)cc3c(=O)c(C(=O)O)cn(C4CC4)c3c2F)C1.Cl (stereo not shown) | 0.05 µg/mL

Form field - read-out: MIC; system: E. coli ATCC 10536; submitted item: CNCC1CCN(c2c(F)cc3c(=O)c(C(=O)O)cn(C4CC4)c3c2Br)C1 (stereo not shown)
0.025 µg/mL

Form field - read-out: MIC; system: E. coli ATCC 10536; submitted item: CN(C)CC1CCN(c2c(F)cc3c(=O)c(C(=O)O)cn(C4CC4)c3c2Cl)C1 (stereo not shown)
0.025 µg/mL

Form field - read-out: MIC; system: E. coli ATCC 10536; submitted item: CCNCC1CCN(c2cc3c(cc2F)c(=O)c(C(=O)O)cn3C2CC2)C1.Cl (stereo not shown)
0.05 µg/mL

---

Test: Urinary and bile excretion after oral administration, bioassay by cup method
Assay type: in vivo
Settings: rat; fasted rats, 10 mg/kg oral; urine 3 ~ 6 hr; Mean ± S.D. (n=5); read-out: Concentration, urine
Counter-ions that a name gives are not always drawn.
In this section we review reported concentration at 6 h values for a set of compounds.
Report only the number, with the unit µg/mL understood.

Compound | Unit Label | Test Result
CCNCC1CCN(c2c(F)cc3c(=O)c(C(=O)O)cn(C4CC4)c3c2F)C1 (centres unmarked) [Example 2, hydrochloride] | µg/mL | 115

We now examine a further compound.
Name the recorded concentration at 6 h for CCNCC1CCN(c2c(F)cc3c(=O)c(C(=O)O)cn(C4CC4)c3c2Cl)C1 (centres unmarked) [Example 13] .
39.4
